assay: Cytotoxicity against MDCK cells after 3 days by CCK-8 assay; assay type: cell-based, Canis lupus familiaris; conditions: dog
Give CC50 at 72 h for every item shown.

For the compound Cc1nnn(-c2cccc(Cl)c2)c1C(=O)N1CCN(c2ccc([N+](=O)[O-])cc2Cl)CC1 , give its reported CC50 at 72 h.
> 100 µM

Identify the reported CC50 at 72 h for the following entry. Cc1onc(-c2ccccc2)c1C(=O)N1CCN(c2ccc([N+](=O)[O-])cc2Cl)CC1
15.9 µM

Please give measured CC50 at 72 h of the following entry: COc1cc([N+](=O)[O-])ccc1N1CCN(C(=O)c2c(C)nnn2-c2ccccc2OC)CC1
> 100 µM

----------
tested on: Influenza A virus; experiment: Antiviral activity against Influenza A virus A/Mal/302/54 (H1N1) infected in MDCK cells assessed as inhibition of virus-induced cytopathic effects after 3 days by CCK-8 assay; type: functional, organism-based; conditions: 72 h
readout-name: pIC50
Friendly reminder that pIC50 comes from taking -log10 of the concentration in mol/L.

Determine reported pIC50 for COc1ccccc1-n1nnc(C)c1C(=O)N1CCN(c2ccc([N+](=O)[O-])cc2Cl)CC1 ; test system: Influenza A virus.
6.05

With Influenza A virus as the test system, provide measured pIC50 for this compound: Cc1onc(-c2ccccc2)c1C(=O)N1CCN(c2ccc([N+](=O)[O-])cc2Cl)CC1 [NUCLEOZIN]
6.28
